Origin of measurements: patent US20250297026A1

ADCC Maximum killing (%) reference
system_under_test: T1, canine CD20 (canine, UniProt Q3C2E2 1-297)
T1 chain: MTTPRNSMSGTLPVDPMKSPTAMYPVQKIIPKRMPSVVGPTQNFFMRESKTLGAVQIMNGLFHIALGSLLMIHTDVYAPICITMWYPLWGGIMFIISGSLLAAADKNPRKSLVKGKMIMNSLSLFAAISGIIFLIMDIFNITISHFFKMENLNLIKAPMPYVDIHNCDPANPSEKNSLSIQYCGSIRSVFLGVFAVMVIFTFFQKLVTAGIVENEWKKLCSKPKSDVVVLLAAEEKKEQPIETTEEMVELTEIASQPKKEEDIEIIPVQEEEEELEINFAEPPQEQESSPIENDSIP
protocol_notes: cell-based or functional assay
attribute_measured: ADCC Maximum killing (%)

{"binder": "PMX071 (antibody, V domains shown) VH: EVHLVESGGDLVKPGGSLRLSCVASGITFNRYYMNWVRQTPGKGLQWVAYIDSGGSPTTYADAVKGRFTISRDNAKNTLYLQMNSLRAEDTAVYYCTSFDYWGQGTLVTVSS VL: SYVLTQLPSKNVTLKQPAHITCGGDNIGSKSVHWYQQKLGQAPILIIYYDTSRPTGIPERFSGANSGNTATLTISGALAEDEADYYCQVWDSSANVFGGGTHLTVL", "measurement": 41}
{"binder": "PMX003 mAb (antibody, V domains shown) VH: EVQLVESGGDLVKPGGSLRLSCVASGITFSRYHMSWVRQAPGKGLQWVAYINSGGSSTSYPDAVKGRFTISRDNAKNTLYLQMDSLRAEDTALYYCTTFDYWGQGTLVTVSS VL: SYVLTQLPSKNVTLKQPAHITCGGDNIGSKSVHWYQQKLGQAPVLIIYYDSRRPTGIPERFSGANSGNTATLTISGALAEDEADYYCQVWDSSANVFGGGTHLTVLG", "measurement": 34}
{"binder": "PMX066 (antibody, V domains shown) VH: AVQLVESGGDLVKPGGSLRLSCVASGITFSRYHMSWVRQAPGKGLQWVAYINSGGSATSYTDAVKGRFSISRDNGKNTLYLQMNSLRVEDSAVYYCTTLDLWGQGTLVTVSS VL: SYVLTQLPSKNVTLKQPAHITCGGDNIGSKSVHWYQQKLGQAPVLIIYYDSRRPTGIPERFSGANSGNTATLTINGALAEDEADYYCQMWDSSANVFGGGTHLTVL", "measurement": 47}
